Data provenance is ChEMBL document CHEMBL5126633.

Answer each item with its documented Emax.
Target desc: von Hippel-Lindau disease tumor suppressor/Histone deacetylase 4 (Homo sapiens) (UniProt P56524+P40337)
Sequence (P40337 whole entry, looked up): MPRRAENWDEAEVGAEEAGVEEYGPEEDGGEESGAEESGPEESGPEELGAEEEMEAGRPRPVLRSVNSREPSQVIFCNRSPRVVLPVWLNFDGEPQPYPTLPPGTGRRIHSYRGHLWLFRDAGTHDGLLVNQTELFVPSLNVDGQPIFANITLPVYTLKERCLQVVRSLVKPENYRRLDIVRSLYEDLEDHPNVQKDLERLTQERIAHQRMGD
Sequence (P56524 whole entry, looked up): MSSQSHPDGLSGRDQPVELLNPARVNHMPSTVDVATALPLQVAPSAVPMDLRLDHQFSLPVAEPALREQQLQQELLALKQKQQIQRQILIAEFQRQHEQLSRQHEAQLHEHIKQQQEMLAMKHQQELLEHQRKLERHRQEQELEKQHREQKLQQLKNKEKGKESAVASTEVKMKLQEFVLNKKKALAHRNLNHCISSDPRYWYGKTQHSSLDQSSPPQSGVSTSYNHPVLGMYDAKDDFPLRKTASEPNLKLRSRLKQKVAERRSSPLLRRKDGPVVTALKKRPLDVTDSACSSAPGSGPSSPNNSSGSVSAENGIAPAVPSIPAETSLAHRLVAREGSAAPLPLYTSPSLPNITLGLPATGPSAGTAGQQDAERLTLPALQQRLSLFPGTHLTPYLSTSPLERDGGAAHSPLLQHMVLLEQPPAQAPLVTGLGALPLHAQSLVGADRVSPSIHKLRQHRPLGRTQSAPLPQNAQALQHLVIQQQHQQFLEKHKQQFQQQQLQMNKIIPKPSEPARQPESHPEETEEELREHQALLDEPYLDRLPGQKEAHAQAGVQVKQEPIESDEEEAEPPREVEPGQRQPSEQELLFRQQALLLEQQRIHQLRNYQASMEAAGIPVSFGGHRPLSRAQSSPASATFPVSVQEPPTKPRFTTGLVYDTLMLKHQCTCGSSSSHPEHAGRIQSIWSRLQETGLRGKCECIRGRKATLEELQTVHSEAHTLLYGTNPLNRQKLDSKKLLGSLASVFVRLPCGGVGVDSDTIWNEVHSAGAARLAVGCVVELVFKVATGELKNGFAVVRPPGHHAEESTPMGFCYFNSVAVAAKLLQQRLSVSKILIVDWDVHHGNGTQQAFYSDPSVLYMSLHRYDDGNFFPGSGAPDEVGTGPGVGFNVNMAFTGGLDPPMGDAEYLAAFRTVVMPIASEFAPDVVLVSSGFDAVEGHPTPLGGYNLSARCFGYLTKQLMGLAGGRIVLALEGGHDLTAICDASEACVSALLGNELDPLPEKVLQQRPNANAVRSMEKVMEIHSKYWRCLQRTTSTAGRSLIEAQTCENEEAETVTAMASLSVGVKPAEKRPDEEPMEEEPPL
Measurement protocol: Protac activity at VHL/HDAC4 in human Jurkat E6.1 cells assessed as induction of HDAC4 degradation by measuring maximum degradation at 10 uM incubated for 24 hrs by ELISA-based MSD electrochemiluminescence assay relative to control
Type: cell-based
State just the number; it will be interpreted in %.

Input: # query: Emax of entry CCCN(CCCCOCCOCCOCCOCC(=O)N[C@H](C(=O)N1C[C@H](O)C[C@H]1C(=O)NCc1ccc(-c2scnc2C)cc1)C(C)(C)C)C[C@@H](C)NC(=O)c1ccc(-c2noc(C(F)(F)F)n2)cc1
Output: 85

Input: # query: Emax of entry CCCN(CCCCOCCOCCOCCOCCOCC(=O)N[C@H](C(=O)N1C[C@H](O)C[C@H]1C(=O)NCc1ccc(-c2scnc2C)cc1)C(C)(C)C)C[C@@H](C)NC(=O)c1ccc(-c2noc(C(F)(F)F)n2)cc1
Output: 78

Input: # query: Emax of entry CCCN(CCCCOCCOCCOCCOCCOCC(=O)N[C@@H](C(=O)N1C[C@@H](O)C[C@@H]1C(=O)NCc1ccc(-c2scnc2C)cc1)C(C)(C)C)C[C@@H](C)NC(=O)c1ccc(-c2noc(C(F)(F)F)n2)cc1
Output: 50

Input: # query: Emax of entry CCCN(CCCCOCCOCCOCC(=O)N[C@H](C(=O)N1C[C@H](O)C[C@H]1C(=O)NCc1ccc(-c2scnc2C)cc1)C(C)(C)C)C[C@@H](C)NC(=O)c1ccc(-c2noc(C(F)(F)F)n2)cc1
Output: 72

Input: # query: Emax of entry Cc1ncsc1-c1ccc(CNC(=O)[C@@H]2C[C@H](O)CN2C(=O)[C@@H](NC(=O)COCCOCCOCCOCCOCC(F)(F)c2cnc(-c3ccc(C(C(=O)NO)c4ccccc4F)cc3)nc2)C(C)(C)C)cc1 (stereo partly drawn)
Output: 20

Input: # query: Emax of entry Cc1ncsc1-c1ccc(CNC(=O)[C@@H]2C[C@@H](O)CN2C(=O)[C@@H](NC(=O)COCCOCCOCC(F)(F)c2cnc(-c3ccc(C(C(=O)NO)c4ccccc4F)cc3)nc2)C(C)(C)C)cc1 (mixture of isomers)
Output: 77

Input: # query: Emax of entry Cc1ncsc1-c1ccc(CNC(=O)[C@@H]2C[C@@H](O)CN2C(=O)[C@@H](NC(=O)COCCOCCOCCOCCOCC(F)(F)c2cnc(-c3ccc(C(C(=O)NO)c4ccccc4F)cc3)nc2)C(C)(C)C)cc1 (stereo partly drawn)
Output: 83

Input: # query: Emax of entry Cc1ncsc1-c1ccc(CNC(=O)[C@@H]2C[C@@H](O)CN2C(=O)[C@@H](NC(=O)COCCOCCOCCOCC(F)(F)c2cnc(-c3ccc(C(C(=O)NO)c4ccccc4F)cc3)nc2)C(C)(C)C)cc1 (stereo partly drawn)
Output: 82
